Data origin: ChEMBL document CHEMBL1828516

system: HepG2; experiment: Cytotoxicity against human HepG2 cells after 48 hrs by lactate dehydrogenase assay; type: cell-based; settings: hepg2, 48 h
QUANTITY_MEASURED: GI50

- Cl.Cl.O=C(NCCCNCCCCCCCNCCCNC(=O)NCC(c1ccccc1)c1ccccc1)NCC(c1ccccc1)c1ccccc1: 33.8 µM
- Cl.Cl.S=C(NCCCNCCCCCCCNCCCNC(=S)NCCC(c1ccccc1)c1ccccc1)NCCC(c1ccccc1)c1ccccc1: 24.5 µM
- Cl.Cl.O=C(NCCCNCCCCCCCNCCCNC(=O)NCCC(c1ccccc1)c1ccccc1)NCCC(c1ccccc1)c1ccccc1: 23.9 µM
- Cl.Cl.S=C(NCCCNCCCCCCCNCCCNC(=S)NCC(c1ccccc1)c1ccccc1)NCC(c1ccccc1)c1ccccc1: 24.7 µM
- Cl.Cl.O=C(NCCCNCCCCCCNCCCNC(=O)Nc1ccccc1)Nc1ccccc1: 619 µM
